system.name: BRD3 (Homo sapiens)
Construct: HiBiT, is appended to the N-terminus of endogenous BRD2, BRD3, and BRD4; endogenous in cells
Sequence (Q15059 whole entry): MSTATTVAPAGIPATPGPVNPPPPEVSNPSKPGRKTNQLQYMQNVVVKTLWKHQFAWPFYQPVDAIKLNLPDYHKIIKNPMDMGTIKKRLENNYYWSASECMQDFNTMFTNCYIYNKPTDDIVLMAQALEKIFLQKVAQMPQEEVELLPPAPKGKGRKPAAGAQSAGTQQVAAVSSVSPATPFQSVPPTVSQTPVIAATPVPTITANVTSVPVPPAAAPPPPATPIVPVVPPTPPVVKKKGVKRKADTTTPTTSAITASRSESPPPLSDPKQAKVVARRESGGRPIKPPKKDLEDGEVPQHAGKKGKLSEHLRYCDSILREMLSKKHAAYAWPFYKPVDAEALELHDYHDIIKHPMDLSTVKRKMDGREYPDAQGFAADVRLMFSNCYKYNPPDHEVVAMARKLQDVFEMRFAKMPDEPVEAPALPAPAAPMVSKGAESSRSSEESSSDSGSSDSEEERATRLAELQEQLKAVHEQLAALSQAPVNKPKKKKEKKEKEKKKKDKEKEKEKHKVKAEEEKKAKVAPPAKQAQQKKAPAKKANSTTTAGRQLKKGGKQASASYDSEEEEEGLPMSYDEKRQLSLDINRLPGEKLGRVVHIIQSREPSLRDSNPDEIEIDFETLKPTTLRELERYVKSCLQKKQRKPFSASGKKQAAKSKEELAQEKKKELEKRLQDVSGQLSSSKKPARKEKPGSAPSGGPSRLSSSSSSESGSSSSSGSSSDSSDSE
test.description: Live cell kinetic HiBiT degradation assay, HiBiT-BRD3 HEK293 cells
Type: cell-based
run.conditions: HiBiT-BRD3 knock-in HEK293 cells
quantity.measured: λmax BRD3 (degradation rate) (h⁻¹)
Field format: number, assumed h⁻¹, no unit text.

IN: Item under review: Cc1ncsc1-c1ccc(CNC(=O)[C@@H]2C[C@@H](O)CN2C(=O)[C@@H](NC(=O)COCC(C)(COCCOCCOCCNc2cc3c(cc2F)C(=O)N(C2CCC(=O)NC2=O)C3=O)COCCOCCOC(=O)C[C@@H]2N=C(c3ccc(Cl)cc3)c3c(sc(C)c3C)-n3c(C)nnc32)C(C)(C)C)cc1 (mixture of isomers) . Reported λmax BRD3 (degradation rate)?
OUT: 2.14

IN: Same lookup for Cc1ncsc1-c1ccc(CNC(=O)[C@@H]2C[C@@H](O)CN2C(=O)[C@@H](NC(=O)COCC(C)(COCCOCCNc2cc3c(cc2F)C(=O)N(C2CCC(=O)NC2=O)C3=O)COCCOCCOCCOC(=O)C[C@@H]2N=C(c3ccc(Cl)cc3)c3c(sc(C)c3C)-n3c(C)nnc32)C(C)(C)C)cc1 (mixture of isomers) , please.
OUT: 2.62

IN: Same lookup for Cc1ncsc1-c1ccc(CNC(=O)[C@@H]2C[C@@H](O)CN2C(=O)[C@@H](NC(=O)COCC(C)(COCCOCCOCCOC(=O)C[C@@H]2N=C(c3ccc(Cl)cc3)c3c(sc(C)c3C)-n3c(C)nnc32)COCCOCCOCCN2CCN(c3cc4c(cc3F)C(=O)N(C3CCC(=O)NC3=O)C4=O)CC2)C(C)(C)C)cc1 (mixture of isomers) , please.
OUT: 2.97

IN: Same lookup for Cc1ncsc1-c1ccc([C@H](C)NC(=O)[C@@H]2C[C@@H](O)CN2C(=O)[C@@H](NC(=O)COCC(C)(COCCOCCOCCNc2cccc3c2C(=O)N(C2CCC(=O)NC2=O)C3=O)COCCOCCOCCOC(=O)C[C@@H]2N=C(c3ccc(Cl)cc3)c3c(sc(C)c3C)-n3c(C)nnc32)C(C)(C)C)cc1 (mixture of isomers) , please.
OUT: 2.66

IN: Same lookup for Cc1ncsc1-c1ccc([C@H](C)NC(=O)[C@@H]2C[C@@H](O)CN2C(=O)[C@@H](NC(=O)COCC(C)(COCCOCCOCCNc2cc3c(cc2F)C(=O)N(C2CCC(=O)NC2=O)C3=O)COCCOCCOCCOC(=O)C[C@@H]2N=C(c3ccc(Cl)cc3)c3c(sc(C)c3C)-n3c(C)nnc32)C(C)(C)C)cc1 (mixture of isomers) , please.
OUT: 3.31

IN: Same lookup for Cc1ncsc1-c1ccc(CNC(=O)[C@@H]2C[C@@H](O)CN2C(=O)[C@@H](NC(=O)COCC(C)(COCCOCCOCCNc2cc3c(cc2F)C(=O)N(C2CCC(=O)NC2=O)C3=O)COCCOCCOCCOC(=O)C[C@@H]2N=C(c3ccc(Cl)cc3)c3c(sc(C)c3C)-n3c(C)nnc32)C(C)(C)C)cc1 (mixture of isomers) , please.
OUT: 2.54

IN: Same lookup for Cc1ncsc1-c1ccc(CNC(=O)[C@@H]2C[C@@H](O)CN2C(=O)[C@@H](NC(=O)COCC(C)(COCCOCCOCCNc2cccc3c2C(=O)N(C2CCC(=O)NC2=O)C3=O)COCCOCCOCCOC(=O)C[C@@H]2N=C(c3ccc(Cl)cc3)c3c(sc(C)c3C)-n3c(C)nnc32)C(C)(C)C)cc1 (mixture of isomers) , please.
OUT: 2.06

IN: Same lookup for Cc1ncsc1-c1ccc(CNC(=O)[C@@H]2C[C@@H](O)CN2C(=O)[C@@H](NC(=O)COCC(C)(COCCOCCOCCNc2cccc3c2C(=O)N(C2CCC(=O)NC2=O)C3=O)COCCOCCOC(=O)C[C@@H]2N=C(c3ccc(Cl)cc3)c3c(sc(C)c3C)-n3c(C)nnc32)C(C)(C)C)cc1 (mixture of isomers) , please.
OUT: 1.69

IN: Same lookup for Cc1ncsc1-c1ccc(CNC(=O)[C@@H]2C[C@@H](O)CN2C(=O)[C@@H](NC(=O)COCC(C)(COCCOCCOCCOC(=O)C[C@@H]2N=C(c3ccc(Cl)cc3)c3c(sc(C)c3C)-n3c(C)nnc32)COCCOCCOCCN2CCN(c3cccc4c3C(=O)N(C3CCC(=O)NC3=O)C4=O)CC2)C(C)(C)C)cc1 (mixture of isomers) , please.
OUT: 2.36
